- assayed target: TNFα (Homo sapiens, UniProt P01375)
- Sequence (P01375 77-233 limits assumed): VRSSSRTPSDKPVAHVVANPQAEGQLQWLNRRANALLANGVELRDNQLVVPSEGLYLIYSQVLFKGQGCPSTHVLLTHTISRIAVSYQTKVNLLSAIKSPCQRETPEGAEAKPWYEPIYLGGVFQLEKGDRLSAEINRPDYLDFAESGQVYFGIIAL
- protocol details: TNF induced HEK-Blue assay (NF-kB-driven secreted alkaline phosphatase reporter)
- Format: cell-based
- stated conditions: TNFα 0.5 ng/mL, HEK-Blue-CD40L cells, 18 h; read-out: TNF induced HEK-Blue assay IC50 value
// reported IC50 per item

Take a look at these entries with their results.
- compound: "Cc1nc2ccc(-c3cnc(C(C)(C)O)nc3)cc2c(N[C@H](C)c2cc(OCCCO)ccc2F)c1Cl"
  IC50: "< 1 µM"
- compound: "CNC(=O)c1ccc(-c2ccc3nc(C)c(F)c(Nc4cc(C)ccc4C)c3c2)cn1"
  IC50: "10 to 25 µM"
- compound: "C[C@@H](Nc1c(Cl)cnc2cc(F)c(-c3cnc(C(C)(C)O)nc3)nc12)c1cc(C(O)CO)ccc1F (stereo partly shown)"
  IC50: "< 1 µM"

## Task Any idea what IC50 was measured for CC(Nc1c(Cl)cnc2cc(F)c(-c3ccc(C(O)CN4CCOCC4)cc3)cc12)c1ccccc1F (stereo not shown) [Example 277] ?
## Result < 1 µM

Just for reference, patent US10865191B2 is where these values come from.
